# Target Desc: recombinant human tissue transglutaminase 2 (TG2) (Homo sapiens, UniProt P21980)
# Construct: 6xHis; made in house; host or cells: E. coli BL21
# Sequence (P21980 whole entry): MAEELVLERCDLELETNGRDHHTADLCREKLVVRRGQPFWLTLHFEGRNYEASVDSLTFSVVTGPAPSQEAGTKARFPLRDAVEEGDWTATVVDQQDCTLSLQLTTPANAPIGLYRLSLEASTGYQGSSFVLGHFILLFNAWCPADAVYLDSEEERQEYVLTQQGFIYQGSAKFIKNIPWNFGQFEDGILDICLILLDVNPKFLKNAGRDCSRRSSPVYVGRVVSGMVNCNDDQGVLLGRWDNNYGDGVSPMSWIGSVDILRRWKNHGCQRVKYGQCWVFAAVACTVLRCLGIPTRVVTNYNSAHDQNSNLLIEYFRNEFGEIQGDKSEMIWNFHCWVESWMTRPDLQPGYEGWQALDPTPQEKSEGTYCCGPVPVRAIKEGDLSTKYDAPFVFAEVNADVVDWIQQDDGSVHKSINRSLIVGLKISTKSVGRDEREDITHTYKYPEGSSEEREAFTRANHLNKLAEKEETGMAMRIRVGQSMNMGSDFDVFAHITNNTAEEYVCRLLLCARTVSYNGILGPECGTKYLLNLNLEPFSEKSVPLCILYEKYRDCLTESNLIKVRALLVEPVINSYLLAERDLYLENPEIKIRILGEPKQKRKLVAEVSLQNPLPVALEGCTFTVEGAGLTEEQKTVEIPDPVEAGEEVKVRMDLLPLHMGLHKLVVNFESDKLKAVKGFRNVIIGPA
# Assay Method Text: TG2 deamidation assay (GDH-coupled fluorescent NADH assay, Z-Gln-Gly substrate)
# Format: biochemical
# Setup Conditions: fluorescent NADH-based deamidation assay; from log(concentration)-response relationships; read-out: IC50 for inhibition of TG2
This listing pairs compounds with measured pIC50.
Kindly note that pIC50 refers to -log10 of the concentration in mol/L and answer with the value alone.

>  <Compound>
CC1=CC(C)(C)N2C(=O)C(=O)c3cc(OC(=O)C4CCCO4)cc1c32 (centres unmarked)

>  <Value Type>
pIC50

>  <Measured Result>
3.35

$$$$

Asked: Would you mind telling me what pIC50 value was observed for "O=C(CN1C(=O)C(=O)c2cc(Br)ccc21)NCC1CC1" ?
Given back: 4.52

Asked: Would you mind telling me what pIC50 value was observed for O=C(NNC(=O)C1=NOC(CNc2ncc(C(F)(F)F)cc2Cl)C1)Nc1ccc(Cl)cc1 (centres unmarked) ?
Given back: 3.60

Asked: Would you mind telling me what pIC50 value was observed for "O=C1C(=O)N(C(=O)NC2CCCCC2)c2ccc(Br)cc21" ?
Given back: 3.96

Asked: Would you mind telling me what pIC50 value was observed for "O=C(CN1C(=O)C(=O)c2ccccc21)Nc1ccc(N2CCN(C(=O)c3cccs3)CC2)cc1" ?
Given back: 4.77

Asked: Would you mind telling me what pIC50 value was observed for "O=C1Nc2ccc(Oc3ccc4c(c3)C(=O)C(=O)N4)cc2C1=O" ?
Given back: 4.64

Asked: Would you mind telling me what pIC50 value was observed for "O=C1Nc2ccc(Cc3ccc4c(c3)C(=O)C(=O)N4)cc2C1=O" ?
Given back: 4.80

Asked: Would you mind telling me what pIC50 value was observed for "O=C(CSc1nnc2c(n1)[nH]c1ccc(F)cc12)OC1CCCCC1" ?
Given back: 4.44

Sourced from patent US20090220554A1
